Data provenance is PubChem BioAssay.

- Method Summary: small-molecule binders of probe aNOTCH3, primary screen, biochemical, small-molecule microarray, 635/667 nm fluorescence (AID 1120);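 further: probe is a biotin-tagged antibody raised against NOTCH3 rather than NOTCH3 protein; score merges spot fluorescence near 667 nm with spot signal to noise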
- Condition Info: higher = more signal
A collection of molecules and their measured composite z-score
Please respond with just the number, no unit label.

These solved cases illustrate the format of a correct answer.
{"Molecule": "CN(C)CCCC[C@@H]1NC(=O)[C@@H]2C[C@H](C(=O)NCCCCCCNC(=O)CS)[C@H](c3cccc(OCCO)c3)N2C1=O", "composite z-score": -0.213}
{"Molecule": "C=CCC(OC(C)=O)[C@@H]1[C@@H](N(Cc2ccc(-c3ccccc3)cc2)C(=O)c2ccc(C)cc2)c2cc(OCCCO)ccc2N1C(=O)c1ccc2ccccc2c1 (stereo not given in full)", "composite z-score": 0.0282}
{"Molecule": "[N-]=[N+]=NCc1ccccc1C[C@]1(C(=O)NCc2ccccc2)N=C(c2ccc(OCCCO)cc2)O[C@H]1c1ccccc1CN=[N+]=[N-]", "composite z-score": 0.192}
{"Molecule": "C=CCC(OC(C)=O)[C@@H]1[C@@H](N(Cc2ccc(-c3ccccc3)cc2)C(=O)c2ccc(-c3ccccc3)cc2)c2cc(OCCCO)ccc2N1C(=O)c1ccc2ccccc2n1 (stereo not given in full)", "composite z-score": 0.195}

The record that follows has no composite z-score shown yet.
Q: Report composite z-score for `CCOC(=O)C[C@H]1[C@H](OC(=O)Cc2ccc3c(c2)OCO3)[C@@H](NC(=O)c2ccccc2)c2cc(OCCCO)ccc2N1C(=O)Cc1ccc(OC)cc1` please.
Result: -0.116

###

- Method Summary: binders of probe aFST on microarray, primary screen, stem cell growth factor project, biochemical, small-molecule microarray, fluorescence 635/667 (AID 1086);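 further: score merges 667 nm fluorescence with signal-to-noise of each printed compound spot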
- Condition Info: higher = more signal
Parameter: composite z-score

These solved cases illustrate the format of a correct answer.
{"Compound": "COc1ccc([Si](C)(C)[C@H]2[C@H](CCO)O[C@@]3(C(=O)N(Cc4ccc(N5CCOC5=O)cc4)c4ccccc43)[C@@H]2C)cc1", "composite z-score": -0.083}
{"Compound": "CC1CC/C=C\\[C@H]2OC34C=CCN(c5ccc(Cl)cc5)C(=O)[C@H]3N(CCCO)C(=O)[C@]4(C)C2C(=O)O1 (stereo partly specified)", "composite z-score": -0.558}

The record that follows has no composite z-score shown yet.
Q: Report composite z-score for C=CC(CO)NC(=O)OCC1c2ccccc2-c2ccccc21 (stereo unspecified) please.
Result: 0.0613

###

- Method Summary: yeast growth modulation, basal conditions, primary screen, YJM789 clinical isolate, OD600, 24 h (AID 1089);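 further: growth of clinical yeast isolate S. cerevisiae YJM 789 seeded 1000 cells per well; test concentration not given here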
- Condition Info: S. cerevisiae YJM789 growth, higher = more signal, called active from +8 up or from −8 down
A collection of molecules and their measured z-score
Please respond with just the number, no unit label.

{"Molecule": "O=C1OCCC=C[C@H]2OC34C=CCN(c5ccc(Cl)cc5)C(=O)[C@H]3N(CCO)C(=O)[C@@H]4C12 (stereo partly drawn)", "Parameter": "z-score", "Recorded Result": -0.237}

Q: Report z-score for C=CCC(OC(C)=O)[C@@H]1[C@@H](N(Cc2cc3ccccc3o2)C(=O)Cc2ccc(OC)cc2)c2cc(OCCCO)ccc2N1C(=O)Cc1ccc(OC)cc1 (stereo partly drawn) please.
Result: -0.484

Q: Report z-score for `CN(C)C(=O)[C@@]1(CCS(=O)(=O)c2ccccc2)N=C(c2ccc(OCCCO)cc2)O[C@H]1c1ccccc1N=[N+]=[N-]` please.
Result: -1.01

###

A collection of compounds and their measured composite z-score
- Measured On: Alpha-bungarotoxin (Bungarus multicinctus)
- Method Summary: alpha-bungarotoxin binders on microarray, profiling panel, artefact control for SMM control protein annotation, biochemical, small-molecule microarray, Alexa647 label, 635/667 nm fluorescence (AID 1117)
- Condition Info: alpha-BTX-A647 binding fluorescence, higher = more signal
Please respond with just the number, no unit label.

These solved cases illustrate the format of a correct answer.
{"Compound": "CCCCC(=C=CC[C@@H](O)c1cccc(OCCO)c1)CCO", "composite z-score": 2.16}
{"Compound": "CCN(CC)c1ccc(N2CC=CC34O[C@@H]5C=CCOC(=O)[C@@H]5[C@H]3C(=O)N(CCCO)[C@@H]4C2=O)cc1 (some centres undefined)", "composite z-score": -1.57}
{"Compound": "C=C(CCCC)/C(=C/C[C@H](OC(C)=O)c1cccc(OCCO)c1)c1cc(C(=O)OC)ccc1OC", "composite z-score": -0.0712}
{"Compound": "COCCCN1C(=O)[C@@]2(Cc3ccccc31)c1ccccc1C(=O)N(Cc1ccccc1OC)[C@H]2c1ccc(CO)cc1", "composite z-score": 0.212}
{"Compound": "NC(=O)NCC#Cc1ccc2c(c1)[C@]1(C(=O)N2)[C@H](C(=O)N2CCCCCCC2)[C@H]2C(=O)O[C@H](c3ccccc3)[C@H](c3ccccc3)N2[C@@H]1c1ccc(O)cc1", "composite z-score": 2.01}
{"Compound": "COCCOC(=O)N1C(=O)[C@@]2(c3cc(C#CC4=CCCCC4)ccc31)[C@H](c1ccc(OCCO)cc1)N1[C@H](c3ccccc3)[C@H](c3ccccc3)OC(=O)[C@H]1[C@@H]2C(=O)N1CCCCCCC1", "composite z-score": 1.9}
{"Compound": "COC(=O)[C@@]1(Cc2ccccc2)[C@H]2c3cc(C(=O)N4CCCC4)n(Cc4ccc(C(F)(F)F)nc4)c3C[C@H]2CN1C(=O)c1ccccc1", "composite z-score": 1.56}
{"Compound": "COc1ccc(CCNC(=O)[C@@]2(Sc3ccc(C)cc3)CC(=O)N(Cc3cc(C(F)(F)F)cc(C(F)(F)F)c3)[C@@H]2c2ccc(CO)cc2)cc1", "composite z-score": 1.24}

The record that follows has no composite z-score shown yet.
Q: Give recorded composite z-score with Alpha-bungarotoxin (Bungarus multicinctus) for the following compound: `C=CC[C@@]1(C(=O)O)N=C(c2ccc(OCCCO)cc2)O[C@@H]1c1ccccc1CN=[N+]=[N-]`
Result: 0.974

###

- System: Human papillomavirus type 1a E7 protein (residues 1-88)
- Method Summary: HPV1a E7 small-molecule binders, primary screen, biochemical, small-molecule microarray, residues 1-88, 635 nm (AID 1129)
- Condition Info: small-molecule microarray binding, fluorescence 635 nm; higher = more signal
Parameter: composite z-score
Please respond with just the number, no unit label.

These solved cases illustrate the format of a correct answer.
{"Compound": "CN(C)C(=O)[C@]1(Cc2ccccc2CN=[N+]=[N-])N=C(c2ccc(OCCCO)cc2)O[C@@H]1c1ccccc1N=[N+]=[N-]", "composite z-score": 1.23}
{"Compound": "CCCCC(O)C1C=CC2C(=O)N(C)C(=O)C2N1Nc1ccccc1 (stereo not given)", "composite z-score": 0.603}
{"Compound": "COCCCNC(=O)[C@@]1(Sc2ccc(C)cc2)CC(=O)N(C2CCCCC2)[C@@H]1c1ccc(CO)cc1I", "composite z-score": 1.18}
{"Compound": "Cc1ccc(S[C@]2(C(=O)NCCCN(C)C)CC(=O)N(Cc3ccccc3Cl)[C@@H]2c2ccc(CO)cc2I)cc1", "composite z-score": -0.522}

The record that follows has no composite z-score shown yet.
Q: Report composite z-score for `COc1ccccc1CN1C(=O)c2ccccc2[C@](Cc2ccccc2I)(C(=O)NCCCN(C)C)[C@@H]1c1ccc(CO)cc1` please.
Result: 1.21

###

- Method Summary: RPMI8226 myeloma cell viability, profiling panel, resazurin fluorescence, basal, 24 h, PK04 Diversity Set (AID 1180);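 further: RPMI8826 multiple myeloma cell line at 5000 cells per well; test concentration not given here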
- Condition Info: higher = more signal
Short version: z-score at least 0.4 is Yes, less is No.

Known results for compounds:
{"Compound": "C=C(COC)C(=O)CC[C@@H](OC(=O)c1cccnc1)c1cccc(OCCO)c1", "Assigned Label": "No"}
{"Compound": "CC(C)CNC(=O)[C@@H]1c2ccccc2C(=O)N(Cc2ccccc2)[C@H]1c1ccc(CO)cc1", "Assigned Label": "No"}
{"Compound": "COC(=O)C(CC#Cc1ccc2c(c1)[C@]1(C(=O)N2)[C@H](c2ccc(O)cc2)N2[C@H](c3ccccc3)[C@H](c3ccccc3)OC(=O)[C@H]2[C@@H]1C(=O)N1CCc2cc(OC)c(OC)cc2C1)C(=O)OC", "Assigned Label": "No"}
{"Compound": "C=CC(CO)NC(=O)OCC1c2ccccc2-c2ccccc21 (stereo not given)", "Assigned Label": "No"}

Q: Is z-score for COc1cc(OC)c(C(O)C2C=CC3C(=O)N(c4ccccc4)C(=O)C3N2Nc2ccccc2F)cc1Br (stereo not given) at or above 0.4?
Result: No

Q: Is z-score for CC(C)C[C@H]1NC(=O)[C@@]23C(=O)N[C@@H](Cc4ccccc4)C2[C@H](C)[C@@]2(C)O[C@H]2C3/C=C/C/C=C\CNC(=O)[C@@H]2CCCN2C1=O (stereo not given in full) at or above 0.4?
Result: Yes

Q: Is z-score for `COC(=O)[C@@]1(Cc2ccc(F)cc2)[C@H]2c3cc(C(=O)N(C)C)n(CCN4CCOCC4)c3C[C@H]2CN1C(=O)c1ccccc1` at or above 0.4?
Result: Yes

Q: Is z-score for `CCCCC(=C=CC[C@H](O)c1ccc(OCCO)cc1)C[C@H](O)c1ccccn1` at or above 0.4?
Result: Yes

Q: Is z-score for `CCCCC(=C=CC[C@@H](O)c1ccc(OCCO)cc1)C[C@@H](O)c1ccccn1` at or above 0.4?
Result: No

Q: Is z-score for `[N-]=[N+]=NCc1ccccc1C[C@]1(C(=O)O)COC(c2ccc(OCCCO)cc2)=N1` at or above 0.4?
Result: No
